Test system: CEM cells HIV-1 protection, formazan growth assay
Test: NCI AIDS Antiviral Assay
Conditions: measured here: growth of uninfected CEM cells
EXPERIMENTAL_ENDPOINT: IC50 (µM)
Dear colleague, please return just the value in µM, with no unit written.

Solved cases (3 shown):
O=C(O)c1cc(I)cc(I)c1O.O=[N+]([O-])C1CCC(O)C2[N-]CCCC21.[Cu+] (stereo not given) ... 5.62
Cc1cc(NC2=CC(=O)C(=O)c3ccccc32)no1 ... 5.89
O=C(CCCC[n+]1ccccc1)Sc1ccccc1C(=O)NCc1ccc2c(c1)OCO2 ... 3.02

Exam item: Name the recorded IC50 of the item CC1=C(C(=O)O)CCC2(C)c3ccc(C(C)C)c(O)c3CCC12 (stereo not given) in your answer.
Marked response: 46.8
